Ref: patent US11814435B2

Assign ka Human to each entry below.
# target system: T1, hBCMA (human BCMA) (Homo sapiens, UniProt Q02223)
# T1 sequence (Q02223 1-184): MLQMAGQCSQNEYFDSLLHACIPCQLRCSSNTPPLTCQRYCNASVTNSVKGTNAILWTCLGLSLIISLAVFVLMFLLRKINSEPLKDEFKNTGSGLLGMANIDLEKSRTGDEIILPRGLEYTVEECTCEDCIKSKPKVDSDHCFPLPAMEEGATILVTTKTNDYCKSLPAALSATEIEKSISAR
# method description: Kinetics and affinity of hBCMA/human IgG interactions by SPR (Bio-Rad Proteon XPR36)
# Type: binding
# assay setup: human BCMA, 37° C.
# value in M⁻¹ s⁻¹; strip the unit string

Recorded ka Human (molecule C01_Rd4_6 nM_C26: anti-BCMA antibody (antibody, V domains shown) VH: EVQLLESGGGLVQPGGSLRLSCAASGFTFSSYPMSWVRQAPGKGLEWVSAIGGSGGSLPYADSVKGRFTISRDNSKNTLYLQMNSLRAEDTAVYYCARYWPMDSWGQGTLVTVSS VL: EIVLTQSPGTLSLSPGERATLSCRASQSVSALYLAWYQQKPGQAPRLLIYDASSRAPGIPDRFSGSGSGTDFTLTISRLEPEDFAVYYCQQYSAWPLTFGQGTKVEIK ): 1.5e+07

The recorded ka Human for entry COMBO_Rd4_0.6 nM_C11: anti-BCMA antibody (antibody, V domains shown) VH: EVQLLESGGGLVQPGGSLRLSCAASGFTFSSYPMSWVRQAPGKGLEWVSAALGSGGSTYYADSVKGRFTISRDNSKNTLYLQMNSLRAEDTAVYYCARYWPMSLWGQGTLVTVSS VL: EIVLTQSPGTLSLSPGERATLSCRASQSVSVRYLAWYQQKPGQAPRLLMYDASIRATGIPDRFSGSGSGTDFTLTISRLEPEDFAVYYCQQYGSWPITFGQGTKVEIK equals 5.11e+06

The recorded ka Human for entry C01_Rd4_6 nM_C24: anti-BCMA antibody (antibody, V domains shown) VH: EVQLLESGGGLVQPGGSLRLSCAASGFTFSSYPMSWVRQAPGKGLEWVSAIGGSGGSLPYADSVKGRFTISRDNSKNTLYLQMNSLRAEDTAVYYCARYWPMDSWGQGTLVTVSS VL: EIVLTQSPGTLSLSPGERATLSCRASQSVSPEYLAWYQQKPGQAPRLLIYDASSRAPGIPDRFSGSGSGTDFTLTISRLEPEDFAVYYCQQYSVWPLTFGQGTKVEIK equals 7.47e+06

// field: ka Human; key: A02_Rd4_6 nM_C19: anti-BCMA antibody (antibody, V domains shown) VH: EVQLLESGGGLVQPGGSLRLSCAASGFTFSSYAMNWVRQAPGKGLEWVSAISDSGGSRWYADSVKGRFTISRDNSKNTLYLQMNSLRAEDTAVYYCARYWPMSDWGQGTLVTVSS VL: EIVLTQSPGTLSLSPGERATLSCRASQSVSVLYLAWYQQKPGQAPRLLMYDASIRATGIPDRFSGSGSGTDFTLTISRLEPEDFAVYYCQQYLAWPLTFGQGTKVEIK ; value = 3e+06

Note to self: ka Human recorded for COMBO_Rd4_0.6 nM_C04: anti-BCMA antibody (antibody, V domains shown) VH: EVQLLESGGGLVQPGGSLRLSCAASGFTFSSYPMSWVRQAPGKGLEWVSAHIGSGGSTYYADSVKGRFTISRDNSKNTLYLQMNSLRAEDTAVYYCARYWPMDSWGQGTLVTVSS VL: EIVLTQSPGTLSLSPGERATLSCRASQSVSSTYLAWYQQKPGQAPRLLMYDASIRATGIPDRFSGSGSGTDFTLTISRLEPEDFAVYYCQQYQSWPLTFGQGTKVEIK was 1.07e+07

Form field ka Human, entry A02_Rd4_6 nM_C08: anti-BCMA antibody (antibody, V domains shown) VH: EVQLLESGGGLVQPGGSLRLSCAASGFTFSSYAMNWVRQAPGKGLEWVSAILDSGGSTYYADSVKGRFTISRDNSKNTLYLQMNSLRAEDTAVYYCARYWPMSPWGQGTLVTVSS VL: EIVLTQSPGTLSLSPGERATLSCRASQSVSFLYLAWYQQKPGQAPRLLMYDASIRATGIPDRFSGSGSGTDFTLTISRLEPEDFAVYYCQQYGSWPLTFGQGTKVEIK : 3.92e+06
